Kindly state pIC50 for each of the entries shown.
biological target: CB1 receptor (Homo sapiens); experiment: CB1 binding assay
Sequence (P21554 whole entry): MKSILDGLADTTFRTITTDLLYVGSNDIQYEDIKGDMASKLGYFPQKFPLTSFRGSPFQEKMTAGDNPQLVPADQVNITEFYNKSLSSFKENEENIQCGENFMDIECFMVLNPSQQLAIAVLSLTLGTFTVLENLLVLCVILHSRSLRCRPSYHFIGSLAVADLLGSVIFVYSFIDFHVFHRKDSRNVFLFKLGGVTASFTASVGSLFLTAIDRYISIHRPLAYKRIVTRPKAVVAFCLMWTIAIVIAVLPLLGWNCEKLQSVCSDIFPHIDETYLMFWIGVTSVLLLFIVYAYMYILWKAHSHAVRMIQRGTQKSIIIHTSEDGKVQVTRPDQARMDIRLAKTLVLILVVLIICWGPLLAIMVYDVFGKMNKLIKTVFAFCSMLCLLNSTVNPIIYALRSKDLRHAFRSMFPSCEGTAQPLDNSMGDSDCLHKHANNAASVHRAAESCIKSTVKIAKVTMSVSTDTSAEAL
pIC50 field: float, defined as -log10 of concentration (mol/L).

Task item: Dear colleague, please send me the reported pIC50 for CCCCCCC(C)(C)c1cc(OC(=O)CCC(=O)O)c([C@H]2CC(=O)C3CC2C3(C)C)c(OC(=O)CCC(=O)O)c1 (single isomer, unassigned; (-)) [Compound 18C] when you can.
Reply: 6.93

Task item: Dear colleague, please send me the reported pIC50 for CCCCCCC(C)(C)c1cc(O)c([C@H]2CC(=O)C3CC2C3(C)C)c(OC(=O)/C=C/C(=O)O)c1 (single isomer, unassigned; (-)) [Compound 18F] when you can.
Reply: 6.48

Task item: Dear colleague, please send me the reported pIC50 for CCCCCCC(C)(C)c1cc(O)c([C@H]2CC(=O)C3CC2C3(C)C)c(OC(=O)CCC(=O)O)c1 (single isomer, unassigned; (-)) [Compound 18B] when you can.
Reply: 7.39

Reference source: patent US20090068143A1
